test: xn = mol fraction of the nth substance listed; conditions: 298.15 K; 101 kPa; Liquid; Capillary tube (Ostwald / Ubbelohde) method; x1 = 0.8
compounds and their reported viscosity
readout-label: viscosity (mPa·s)

[[record]]
compound = "COC(=O)CCCCl [methyl 4-chlorobutanoate] + Cc1ccccc1"
uom = "mPa·s"
test_value = 1.246

[[record]]
compound = "COC(=O)CCCCl [methyl 4-chlorobutanoate] + Cc1ccc(C)cc1"
uom = "mPa·s"
test_value = 1.255

[[record]]
compound = "COC(=O)CCCCl [methyl 4-chlorobutanoate] + Cc1ccccc1C"
uom = "mPa·s"
test_value = 1.322

[[record]]
compound = "COC(=O)CCCCl [methyl 4-chlorobutanoate] + c1ccccc1"
uom = "mPa·s"
test_value = 1.271

